- experimental protocol: solvent given as SMILES
- condition set: in ClC(Cl)Cl
recorded endpoint: absorption maximum (nm)
The reply should be a number in nm, with the unit left off.

CN(C)c1ccc(-c2nc(C#N)c(C#N)n2C)cc1    326
CCCCCCOc1ccc(C#Cc2ccc(C#CC#Cc3ccc(C#Cc4ccc(OCCCCCC)c(OCCCCCC)c4)c4nsnc34)c3nsnc23)cc1OCCCCCC    472
CCc1ccc(-n2c3ccccc3c3cc4c(cc32)c2ccccc2n4-c2ccc(CC)cc2)cc1    409
COc1ccc2c3cccc4c(OC)ccc(c5cccc1c52)c43    459
O=C1C=CC2=Cc3ccccc3B(O)N12    365
COc1ccc2c(-c3nc(-c4ccccc4Cl)no3)cc(=O)oc2c1    355
CCCCn1c2ccccc2c2ccc3c4cc(-c5cccc(F)c5)ccc4n(CCCC)c3c21    328
Cc1ccc(S(=O)(=O)/N=c2\oc3cccc4c5c(-c6ccccc6)oc6cccc(c(c2-c2ccccc2)c34)c65)cc1    445

Now look at this one.
q: Which absorption maximum is listed for CCOC(CN1C(=O)C2=C(c3ccsc3)N(CC(OCC)OCC)C(=O)C2=C1c1ccsc1)OCC ?
a: 493
